test system: velvetleaf; assay: Test B preemergence/postemergence greenhouse plant response rating 0 to 10; assay type: in vivo, Abutilon theophrasti; details: PREEMERGENCE, Rate 50 g/ha; 0 to 10 scale
PROPERTY NAME: Plant response rating, Velvetleaf
// print number alone

Consider the reported Plant response rating, Velvetleaf for these compounds:
1. Fc1cc(Cl)c(OC2CCCC2)cc1-c1nn2c(c1Cl)CCCC2: 1
2. CC(=O)c1cc(-c2nn3c(c2Cl)CCCC3)c(F)cc1Cl: 2

Tell me reported Plant response rating, Velvetleaf for COCOc1cc(-c2nn3c(c2Br)CCCC3)c(F)cc1Cl , tested with velvetleaf.
9

Can you check C#CCOC(=O)COc1cc(-c2nn3c(c2Cl)CCCC3)c(F)cc1Cl next?
10

---

tested on: common ragweed; assay: Test G preemergence/postemergence greenhouse plant response rating 0 to 100; format: in vivo, Ambrosia elatior; conditions: POSTEMERGENCE, Rate 250 g/ha, 0 to 100 scale
PROPERTY NAME: Plant response rating, Cmn Ragweed
// print number alone

Consider the reported Plant response rating, Cmn Ragweed for these molecules:
1) C#CCOc1cc(-c2nn3c(c2Br)CCCC3)c(F)cc1Cl [Compound 26]: 100
2) CC(C)Oc1cc(-c2nn3c(c2Cl)CCCC3)c(F)cc1Cl [Compound 21]: 100
3) CCCOc1cc(-c2nn3c(c2Cl)CCCC3)c(F)cc1Cl [Compound 23]: 20
4) CCS(=O)(=O)Oc1cc(-c2nn3c(c2Cl)CCCC3)c(F)cc1Cl [Compound 25]: 0
5) C=CCN1C(=O)COc2cc(F)c(-c3nn4c(c3Cl)CCCC4)cc21 [Compound 33]: 50

Give its Plant response rating, Cmn Ragweed value. Item: Fc1cc(Cl)c(OC2CCCC2)cc1-c1nn2c(c1Cl)CCCC2 [Compound 24]
0

Can you check CC(C)N1C(=O)COc2cc(F)c(-c3nn4c(c3Cl)CCCC4)cc21 [Compound 31] next?
100

Can you check Fc1cc(Cl)c(OCc2ccccc2)cc1-c1nn2c(c1Cl)CCCC2 [Compound 22] next?
20

---

Quick reference for Plant response rating, Soybean among some compounds
test system: soybean; experiment: Test B preemergence/postemergence greenhouse plant response rating 0 to 10; format: in vivo, Glycine max; conditions: POSTEMERGENCE, Rate 50 g/ha; 0 to 10 scale
// print number alone

Consider the reported Plant response rating, Soybean for these compounds:
1. CCOC(=O)COc1cc(-c2nn3c(c2Cl)CCCC3)c(Cl)cc1Cl: 2
2. Oc1cc(-c2nn3c(c2Cl)CCCC3)c(Cl)cc1Cl: 4
3. CCCN1C(=O)COc2cc(F)c(-c3nn4c(c3Cl)CCCC4)cc21: 8

Give its Plant response rating, Soybean value. Item: CCOCOc1cc(-c2nn3c(c2Cl)CCCC3)c(F)cc1Cl
8

Can you check COC(=O)c1cc(-c2nn3c(c2Cl)CCCC3)c(F)cc1Cl next?
8

Can you check O=C1COc2cc(F)c(-c3nn4c(c3Cl)CCCC4)cc2N1 next?
8

Can you check O=C1COc2cc(F)c(-c3nn4c(c3Br)CCCC4)cc2N1 next?
8

Can you check C#CCN1C(=O)COc2cc(F)c(-c3nn4c(c3Br)CCCC4)cc21 next?
8

Can you check CC(C#N)Oc1cc(-c2nn3c(c2Cl)CCCC3)c(F)cc1Cl (stereo not drawn) next?
4
